- assayed-system: CtBP1 (Homo sapiens)
- assay-summary: SEC-MALS tetramer assembly
- Type: binding
- Set-up: 28–375 (crystal); 28–440 (SEC-MALS)
pEC50: −log10 of the molar value.
measured-parameter: pEC50

Quickly give me recorded pEC50 for Nc1ncnc2c1ncn2[C@@H]1O[C@H](COP(=O)(O)O)[C@@H](O)[C@H]1O [AMP] ~4.18
